B1: BCL2L13 (parent)
chain: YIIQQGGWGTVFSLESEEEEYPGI

- Variants of: B1
- measurementProtocol: protein stability index of a GFP-peptide fusion (GPS, HEK-293T) (PSI 1-6); higher = more stable;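 note: lentivirally expressed fusions sorted by FACS into six bins by GFP to DsRed ratio, PSI derived from sequencing read proportions per bin multiplied by bin number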
- details: c terminus: a fixed tail appended
reportedEndpoint: protein stability index
Answer field: number only, no words.

Query: Which measured protein stability index value corresponds to YIIQQGGWGTVNSLESEEEEYPGI [F12N] ?
Reply: 1.56

Query: Okay, and YIIQQGGWGTVFSLESEFEEYPGI [E18F] ?
Reply: 2.56

Query: Okay, and YIIQQGGWGEVFSLESEEEEYPGI [T10E] ?
Reply: 1.17

Query: Okay, and YIIQQGGWGTVFSLESEEEEYMGI [P22M] ?
Reply: 1.42

Query: Okay, and YIIQQGGWGHVFSLESEEEEYPGI [T10H] ?
Reply: 1.11

Query: Okay, and YIIQQGGWGTVFSLESEEEKYPGI [E20K] ?
Reply: 2.15

Query: Okay, and YIIQQGYWGTVFSLESEEEEYPGI [G7Y] ?
Reply: 3.6

Query: Okay, and YIIQQGGWGTVFSLESTEEEYPGI [E17T] ?
Reply: 2.81

Query: Okay, and YIIQQGGWGTVFSLESEEEEYPFI [G23F] ?
Reply: 1.26

Query: Okay, and YIIQQGGWGTVFSLESEESEYPGI [E19S] ?
Reply: 2.39

Query: Okay, and YIIQQGGWGTVFSLESDEEEYPGI [E17D] ?
Reply: 1.19

Query: Okay, and IIIQQGGWGTVFSLESEEEEYPGI [Y1I] ?
Reply: 1.6

Query: Okay, and YIIQQGGWGTVFPLESEEEEYPGI [S13P] ?
Reply: 1.38

Query: Okay, and PIIQQGGWGTVFSLESEEEEYPGI [Y1P] ?
Reply: 4.31

Query: Okay, and YIIQQGGWGTVFSLESEEEEYPGT [I24T] ?
Reply: 1.1

Query: Okay, and YIIQQGGWGTVFYLESEEEEYPGI [S13Y] ?
Reply: 1.71

Query: Okay, and QIIQQGGWGTVFSLESEEEEYPGI [Y1Q] ?
Reply: 3.18

Query: Okay, and YIIQRGGWGTVFSLESEEEEYPGI [Q5R] ?
Reply: 1.92

Query: Okay, and YIIQGGGWGTVFSLESEEEEYPGI [Q5G] ?
Reply: 1.69

Query: Okay, and YIIQQGGWGTVFSLESEEEEYPGN [I24N] ?
Reply: 2.39

Query: Okay, and YIIQQGGWGTVFSLESEEEELPGI [Y21L] ?
Reply: 2.11

Query: Okay, and YIIQQGGWGTVFSLESEEERYPGI [E20R] ?
Reply: 2.98
